Assay: Volume of distribution at steady state in CD-1 mouse at 2 mg/kg, iv
Format: ADME, organism-based
Conditions: in vivo, read-out: Vdss
Metric: Vd

- Smiles Structure: "CCOC(=O)c1sc(Nc2ncccn2)nc1-c1ccccn1"
  Val: "1.45 L/kg"

====

Experiment: Tmax in CD-1 mouse at 10 mg/kg, po
Type: ADME, organism-based
Settings: in vivo
Metric: Tmax

- Smiles Structure: "CCOC(=O)c1sc(Nc2ncccn2)nc1-c1ccccn1"
  Val: "34.8 min"

====

Assay: Cytotoxicity against human HuH7 cells assessed as decrease in cell viability after 72 hrs by MTT assay
Assay type: functional
Settings: Huh-7, 72 h
# Lookup of reported CC50 keyed by entry

- Smiles Structure: "CCOC(=O)CCc1sc(Nc2ncccn2)nc1-c1ccccn1"
  CC50: "2050 nM"
- Smiles Structure: "CC(C)OC(=O)c1sc(N(COP(=O)(OC(C)(C)C)OC(C)(C)C)c2ncccn2)nc1-c1ccccn1"
  CC50: "380 nM"
- Smiles Structure: "CC(C)OC(=O)OCN(c1ncccn1)c1nc(-c2cnccn2)c(C(=O)OC(C)C)s1"
  CC50: "95 nM"
- Smiles Structure: "c1ccc(-c2csc(NCc3ncccn3)n2)nc1"
  CC50: "40500 nM"
- Smiles Structure: "COCCOCN(c1ncccn1)c1nc(-c2cnccn2)c(C(=O)OC(C)C)s1"
  CC50: "50000 nM"
- Smiles Structure: "CCOC(=O)c1sc(NCc2ncccn2)nc1-c1ccccn1"
  CC50: "50000 nM"
- Smiles Structure: "CC(C)OC(=O)c1sc(Nc2ncccn2)nc1-c1ccccn1"
  CC50: "410 nM"
- Smiles Structure: "CC(C)OC(=O)c1sc(Nc2ncccn2)nc1-c1cnccn1"
  CC50: "110 nM"
- Smiles Structure: "CCOCc1sc(Nc2ncccn2)nc1-c1ccccn1"
  CC50: "3190 nM"
- Smiles Structure: "CCOC(=O)c1sc(Nc2ncccn2)nc1-c1ncccc1C"
  CC50: "46100 nM"
- Smiles Structure: "CCOC(=O)c1sc(Nc2ncccn2)nc1-c1ccncn1"
  CC50: "1600 nM"
